Tested on: CRL-7250
Test: Cytotoxic Profiling of Annotated Libraries Using Quantitative High-Throughput Screening (AID 1296008); further: nearly all actives have a fitted effect of over 60% in size
Settings: Five cell lines viability, CellTiter-Glo ATP luminescence, 48-72 h
Description: Cell-based phenotypic screening is a commonly used approach to discover biological pathways, novel drug targets, chemical probes and high-quality hit-to-lead molecules. […] A pintool (Kalypsys) was used to transfer 23 nL of compound solution to the 1536-well assay plates. […] Plates were left at room temperature for 10 min before imaging the ATP-coupled luminescence using a ViewLux microplate imager (PerkinElmer, Waltham, MA).
Records with an inconclusive call do not appear. The source made the active and inactive calls. The call rests on the fitted dose curve; in most records, active means well fitted inhibition curve with a large enough effect; inconclusive means small, poorly fitted or top-dose-only effect; inactive means flat fitted curve, though single readings scatter.
recorded-endpoint: outcome

Example results:
{"molecule": "NC1CCC(N[C@@H]2C[C@H]2c2ccccc2)CC1 (stereo not given in full)", "experimental-system": "CRL-7250", "outcome": "inactive"}
{"molecule": "c1nc(NC2CCCCCC2)c2cc(CNC[C@H]3CCCO3)sc2n1", "experimental-system": "CRL-7250", "outcome": "inactive"}
{"molecule": "CC1=CC(=O)CC(C)(C)C1(O)CCC(C)O (stereo not given)", "experimental-system": "CRL-7250", "outcome": "inactive"}
{"molecule": "COc1cc(COC2OC(CO)C(O)C(O)C2O)cc(OC)c1O (stereo not given)", "experimental-system": "CRL-7250", "outcome": "inactive"}

Lab note: next molecule to report on.
Query: Send back CRL-7250 outcome of CC1(C)CCC2(C(=O)OC3OC(COC4OC(CO)C(O)C(O)C4O)C(O)C(O)C3O)CCC3(C)C(=CCC4C5(C)CCC(O)C(C)(C(=O)O)C5CCC43C)C2C1O (stereo not given) only.
Response: inactive

Sourced from PubChem BioAssay (NCATS)
